Origin of values: ChEMBL document CHEMBL3988442

Assayed Target: Proteasome subunit beta (Trypanosoma cruzi)
Assay Procedure: Trypanosoma cruzi proteasome chymotrypsin-like activity (TcProtChymo) assay.
Format: functional
Design: scale not given: in the data most compounds retested in dose-response had high values
Run Conditions: 9.37 µM
Record form. Attribute: Percent Effect. Fill in for each entry.
Give the number; % is assumed, so skip it.

Which Percent Effect value is on record for COCc1ccccc1C(=O)NCCCN1CCCC1C(=O)N(C)C (stereo unspecified) ?
15.8

Could you share which Percent Effect value was measured for `O=C(C1=CCCC1)N1CCO[C@H]2[C@@H](Oc3ccccn3)CC[C@@H]21` ?
9.96

Form field: reported Percent Effect of `c1ccc(CC2CCN(Cc3ccnc(-c4cccnc4)n3)CC2)cc1`
-1.56

Record request: Percent Effect value, item Cc1nn(C)c(C)c1C1CCCN1CC(=O)NC(C1CC1)C1CC1 (stereo unspecified)
-3.06

Requested field: Percent Effect. Item: `Cc1ccc(CN2CC[C@H]3OCC[C@@H](c4nc(C)no4)[C@H]3C2)cc1`
15.3

GET /values?readout=Percent Effect&item= `O=C(c1ccc(-n2cccn2)nc1)N1CCCN(c2cccnn2)CC1`
13

====

Assayed Target: Arginase-2, mitochondrial (Homo sapiens) (UniProt P78540)
Sequence (P78540 whole entry): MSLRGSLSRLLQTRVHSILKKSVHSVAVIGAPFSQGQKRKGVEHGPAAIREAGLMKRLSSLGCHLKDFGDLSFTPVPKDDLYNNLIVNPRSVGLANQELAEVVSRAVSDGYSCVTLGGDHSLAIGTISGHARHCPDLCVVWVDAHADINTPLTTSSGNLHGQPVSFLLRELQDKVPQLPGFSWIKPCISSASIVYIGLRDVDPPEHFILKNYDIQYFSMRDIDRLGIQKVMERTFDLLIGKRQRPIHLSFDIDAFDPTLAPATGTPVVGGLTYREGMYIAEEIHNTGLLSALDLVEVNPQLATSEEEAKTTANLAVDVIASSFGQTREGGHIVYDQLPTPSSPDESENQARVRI
Assay Procedure: in vitro enzyme assay to detect the production of urea directly proportional to the activity of Arginase II
Type: functional
Parameters: scale not given: in the data most compounds retested in dose-response had high values
Run Conditions: 33.3 µM
Value Type: Percent Effect (%)
Give just the number in %; leave the unit off.

# input compound: COc1ccc(CN2CCCC2Cn2nc(C)nc2C)cc1F (stereo unspecified) ; wanted: its Percent Effect
2.8

Given the compound c1ccc2sc(CN3CCOC(Cn4cccn4)C3)nc2c1 (stereo unspecified) , what is its reported Percent Effect?
-2

Fill blank: measured Percent Effect of the compound `CN(C)C(=O)NCc1cc2n(n1)CCN(C[C@H]1[C@@H]3CNC[C@@H]31)C2` is ____.
15.7

Quick check: Percent Effect of CCCc1ncc(C(=O)N2CCOC(c3nc(C)n[nH]3)C2)s1 (stereo unspecified) ?
7.1

Quick one: Percent Effect for `O=C(CCc1c[nH]cn1)N1CC[C@@H](c2ccc3ccccc3c2)[C@H](O)C1` ?
8.85

Endpoint output: Percent Effect of `CC(=O)N1CCN(S(=O)(=O)c2ccc(C)c(F)c2)CC1` . Value?
9.47

Dear colleague, I am looking for the recorded Percent Effect of the following compound: `CC(=O)c1ccc(N2CCC(CO)(CCOc3ccccc3)CC2)nc1`
20.7

Tell me the measured Percent Effect of `Cc1c(C)n(Cc2ccccn2)c2nc3c(c(N)c12)CCCC3` , please.
-8.98

GET /values?readout=Percent Effect&item= O=C1CC(c2cccs2)c2snc(C(=O)O)c2N1 (stereo unspecified)
3.09

Which Percent Effect reading was recorded for the compound Cc1ccc(CN2CCCC23CCN(S(=O)(=O)c2ccccc2)C3)o1 (stereo unspecified) ?
1.59

What measured Percent Effect goes with CC(=O)NCCNC(=O)CN1CCN(Cc2nccn2C)C(C)C1 (stereo unspecified) ?
0.185

Which Percent Effect is listed for `Cc1ncsc1C(=O)N1CCCN(Cc2cscn2)CC1` ?
-1.9

May I ask what Percent Effect has been recorded for `CC(C)OCCOCc1cccc(NC(=O)NCc2ccccn2)c1` ?
-24.8

Requested read-out: Percent Effect. Entry: `CCS(=O)(=O)Nc1ccc(C(=O)NCCCN2CCCC2)cc1`
0

Please give the measured Percent Effect for this compound: `COc1ccnc(N2CCN(C(=O)CCc3nccs3)CC2)n1`
-2.38

What value of Percent Effect has been reported for the following compound? CC(C)c1n[nH]c(C2CN(C(=O)CCn3ccccc3=O)CCO2)n1 (stereo unspecified)
-2.37

Reported Percent Effect for `O=C(CCn1cncn1)NC1(c2cccc(Br)c2)CCC1` : what is it?
1.38

Need Percent Effect of `CN(C)c1ncnc2c1CCN(CC1CCCC1)CC2` , thanks.
-4.14

// lookup Percent Effect for `Cc1nc(NCCc2ccc(Cl)cc2)cc(C(=O)N2CCOCC2)n1`
-44.1

If you can, please state the reported Percent Effect value of `COc1ccc(CN2CCC(O)CC2)c(OC)c1` .
-1.91

# Percent Effect lookup, item `CCOc1ccc(N2CCCN=C2NC(=O)c2cccc(Cl)c2)cc1`
-13.8

# Percent Effect lookup, item CC(C)NC(=O)N1CCN(S(=O)(=O)C2CC2)CC2(CC(=O)N(C)C2)C1 (stereo unspecified)
-5.81

GET /values?readout=Percent Effect&item= Cc1ccc(CN2CCc3ncnc(C4CCOC4)c3CC2)s1 (stereo unspecified)
-41.4

# Percent Effect lookup, item `Cn1cc(C(=O)NC[C@@H]2OC[C@H]3CN(Cc4ccco4)CC[C@H]32)cn1`
-2.79

// query Percent Effect value for entry `O[C@H]1CCN(Cc2ccoc2)[C@H]1Cc1cccnc1`
-54.7

Entry CNC(=O)CCc1cc(C)nc(C2CCCN2)c1 (stereo unspecified) : reported Percent Effect = ?
-3.02

Would you mind telling me what Percent Effect value was observed for `COC(=O)c1cccc(OCCn2nc(-c3cccs3)oc2=O)c1` ?
-3.14

Name the recorded Percent Effect for CC(C)c1nnc2n1CC(CNCc1ccncc1)CC2 (stereo unspecified) .
2.21

Given the entry `Cc1ccc(NS(=O)(=O)c2cc3c(c(C(=O)O)c2)OCCO3)c(F)c1` , report its measured Percent Effect.
1.08

Percent Effect lookup needed for Cc1cccc(CCC(=O)N2CCCC(c3cc(C(N)=O)[nH]n3)C2)c1 (stereo unspecified) , thanks.
-10

Return reported Percent Effect; argument: O=C1CC(c2ccc(C(=O)O)cc2)c2ncn(-c3ccccc3)c2N1 (stereo unspecified)
-8.63
